# procedure_text: inhibitors of fungal efflux pumps CDR1, CDR2, MDR1, pilot screen, validation compound set, multiplex, phenotypic (AID 588506);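 further: Nile Red retained in cells so higher fluorescence means more efflux inhibition; 0 = negative control wells and 1 = enniatin B 25 µM full block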
# condition_notes: S. cerevisiae pump-expressing triplex, Nile Red efflux flow cytometry; at 10 µM; hits give high values; the pumps come from Candida albicans
measurement_type: efflux inhibition (fraction of control)

molecule	result_number
CCCC(=O)O[C@]1(C(=O)CO)CC[C@H]2[C@@H]3CCC4=CC(=O)CC[C@]4(C)[C@H]3[C@@H](O)C[C@@]21C	-0.2
CC(=O)O[C@H]1CSC[C@H]1NC(=O)c1ccccc1	-0.28
COCCn1c(/C=C/c2ccccc2)nc2ccccc21	0.22
CCCCC/C=C\C[C@H](O)/C=C/c1cccc(C[C@H](O)CCCCO)n1	0.16
COc1ccc(C2(CCN=Cc3ccc(N(C)C)cc3)CCOC(C)(C)C2)cc1 (stereo not drawn)	-0.24
COc1ccc(-c2[nH]ncc2C=O)cc1OC	-0.12
C=CCc1cc(Cl)ccc1OCCOCCN(C)C	-0.17
Nc1ncnc2c1ncn2C1OC(CO)C(O)C1O (stereo not drawn)	-0.01
COc1cc(OC)c(C(=O)CCCN2CCCC2)c(OC)c1	0.19
C=C(C)c1nc2cc(OC)c(OC)cc2c(=O)o1	-0.46
Clc1ccc2c(c1)C(N1CCNCC1)=Nc1ccccc1O2	-0.47
CO[C@@H]1O[C@@H]2COC(c3ccccc3)O[C@@H]2[C@@H](OC)[C@@H]1O (stereo partly drawn)	0.1
COc1ccc2oc(=O)c(C(=O)N3CCN(c4ccccc4)CC3)cc2c1	-0.54
CC(C)OC(=O)C(C)(C)Oc1ccc(C(=O)c2ccc(Cl)cc2)cc1	-0.09
OC[C@H]1O[C@@H](n2cnc3c(Nc4ccccc4)ncnc32)[C@H](O)[C@@H]1O	0.3
COC1=CC(=O)CC(C)C12Oc1c(Cl)c(OC)cc(OC)c1C2=O (stereo not drawn)	-0.09
COc1ccc(NC(=O)C2CSC3c4ccccc4C(=O)N23)cc1 (stereo not drawn)	-0.1
C(=C\c1ccccc1)/CN1CCN(C(c2ccccc2)c2ccccc2)CC1	-0.24
CC1/C(=C\c2ccc(Cl)cc2)C(=O)C2CC1C2(C)C (stereo not drawn)	0.05
Cc1cc(-c2nn(-c3ccccc3F)cc2CN2CCC(O)CC2)c(C)s1	-0.35
CC(C(=O)O)c1ccc(N2Cc3ccccc3C2=O)cc1 (stereo not drawn)	-0.41
COC(=O)c1cc(-c2c(C)oc3cc(OC)ccc3c2=O)c(C)o1	-0.1
COc1ccc(C(=O)C2CCCCC2=O)cc1 (stereo not drawn)	0.04
